TGT: Apoptosis regulator Bcl-2 (Homo sapiens)
Sequence (P10415 whole entry): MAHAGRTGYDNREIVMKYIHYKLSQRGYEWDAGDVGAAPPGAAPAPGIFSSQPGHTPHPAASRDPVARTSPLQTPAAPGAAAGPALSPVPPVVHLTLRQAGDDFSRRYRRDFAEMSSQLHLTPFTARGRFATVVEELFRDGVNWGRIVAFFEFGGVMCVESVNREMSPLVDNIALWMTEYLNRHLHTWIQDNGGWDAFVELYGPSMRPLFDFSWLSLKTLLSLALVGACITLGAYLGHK

QUERY SMILES	Ki
Cc1c(C(=O)NS(C)(=O)=O)c(-c2cccc(N3CCN(c4ccc(NS(=O)(=O)c5ccc(N[C@H](CCN(C)C)CSc6ccccc6)c([N+](=O)[O-])c5)cc4)CC3)c2)c(-c2ccc(Cl)cc2)n1C(C)C	< 1 nM

* * *

TGT: Bcl-2-like protein 1 (Homo sapiens)
pIC50: −log10 of the molar value.
Form field: pIC50 (one value per entry).
MEASURE: pIC50

QUERY SMILES	RESULT NUMBER
CCn1c(C)c(C(=O)NS(C)(=O)=O)c(-c2cccc(N3CCN(c4ccc(NS(=O)(=O)c5ccc(N[C@H](CCN(C)C)CSc6ccccc6)c([N+](=O)[O-])c5)cc4)CC3)c2)c1-c1ccc(Cl)cc1	8.15
CCCCn1c(C)c(C(=O)O)c(-c2cccc(N3CCN(c4ccc(NS(=O)(=O)c5ccc(N[C@H](CCN(C)C)CSc6ccccc6)c([N+](=O)[O-])c5)cc4)CC3)c2)c1-c1ccc(Cl)cc1	7.80
CN(C)CC[C@H](CSc1ccccc1)Nc1ccc(S(=O)(=O)Nc2ccc(N3CCN(c4cccc(-c5cnoc5-c5ccc(Cl)cc5)c4)CC3)cc2)cc1[N+](=O)[O-]	7.66
CN(C)CC[C@H](CSc1ccccc1)Nc1ccc(S(=O)(=O)Nc2ccc(N3CCN(c4cccc(-c5c(C(=O)O)c(C(F)(F)F)n(C)c5-c5ccc(Cl)cc5)c4)CC3)cc2)cc1[N+](=O)[O-]	8.22
CN(C)CC[C@H](CSc1ccccc1)Nc1ccc(S(=O)(=O)Nc2ccc(N3CCN(c4cccc(-c5cncn5-c5ccc(Cl)cc5)c4)CC3)cc2)cc1[N+](=O)[O-]	7.74
CN(C)CC[C@H](CSc1ccccc1)Nc1ccc(S(=O)(=O)Nc2ccc(N3CCN(c4cccc(-c5c(-c6ccc(Cl)cc6)nn(C)c5C(=O)O)c4)CC3)cc2)cc1[N+](=O)[O-]	8.23
CCCn1c(C)c(C(=O)O)c(-c2cccc(N3CCN(c4ccc(NS(=O)(=O)c5ccc(N[C@H](CCN(C)C)CSc6ccccc6)c([N+](=O)[O-])c5)cc4)CC3)c2)c1-c1ccc(Cl)cc1	8.09

* * *

TGT: Induced myeloid leukemia cell differentiation protein Mcl-1 (Homo sapiens)
Sequence (Q07820 whole entry): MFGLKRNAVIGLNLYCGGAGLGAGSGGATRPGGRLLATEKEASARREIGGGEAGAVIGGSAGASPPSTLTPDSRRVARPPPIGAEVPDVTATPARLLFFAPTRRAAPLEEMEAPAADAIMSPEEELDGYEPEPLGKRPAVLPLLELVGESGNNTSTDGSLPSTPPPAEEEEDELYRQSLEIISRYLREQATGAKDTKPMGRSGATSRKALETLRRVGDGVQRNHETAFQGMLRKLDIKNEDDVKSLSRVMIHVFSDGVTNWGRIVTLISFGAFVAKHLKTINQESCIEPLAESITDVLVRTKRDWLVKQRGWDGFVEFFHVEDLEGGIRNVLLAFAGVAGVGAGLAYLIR
ASSAY OVERVIEW: Binding affinity to MCL1 (unknown origin) after 2 hrs by fluorescence polarization assay
pIC50: −log10 of the molar value.
MEASURE: pIC50

QUERY SMILES	TGT	RESULT
Cc1c(C(=O)NS(C)(=O)=O)c(-c2cccc(N3CCN(c4ccc(NS(=O)(=O)c5ccc(N[C@H](CCN(C)C)CSc6ccccc6)c([N+](=O)[O-])c5)cc4)CC3)c2)c(-c2ccc(Cl)cc2)n1C(C)C	Induced myeloid leukemia cell differentiation protein Mcl-1 (Homo sapiens)	< 5.70
CCn1c(C)c(C(=O)NS(C)(=O)=O)c(-c2cccc(N3CCN(c4ccc(NS(=O)(=O)c5ccc(N[C@H](CCN(C)C)CSc6ccccc6)c([N+](=O)[O-])c5)cc4)CC3)c2)c1-c1ccc(Cl)cc1	Induced myeloid leukemia cell differentiation protein Mcl-1 (Homo sapiens)	< 5.70

* * *

System: NCI-H1417
ASSAY OVERVIEW: Cytotoxicity against human NCI-H1417 cells assessed as growth inhibition after 4 days by WST assay
Format: functional, cell-based
EXPERIMENTAL CONTEXT: NCI-H1417, 96 h
pIC50: −log10 of the molar value.

MOLECULE	pIC50
CC1(C)CCC(c2ccc(Cl)cc2)=C(CN2CCN(c3ccc(C(=O)NS(=O)(=O)c4ccc(N[C@H](CCN5CCOCC5)CSc5ccccc5)c(S(=O)(=O)C(F)(F)F)c4)cc3)CC2)C1 [NAVITOCLAX]	7.27
CCn1c(C)c(C(=O)NS(C)(=O)=O)c(-c2cccc(N3CCN(c4ccc(NS(=O)(=O)c5ccc(N[C@H](CCN(C)C)CSc6ccccc6)c([N+](=O)[O-])c5)cc4)CC3)c2)c1-c1ccc(Cl)cc1	7.95
Cc1c(C(=O)NS(C)(=O)=O)c(-c2cccc(N3CCN(c4ccc(NS(=O)(=O)c5ccc(N[C@H](CCN(C)C)CSc6ccccc6)c([N+](=O)[O-])c5)cc4)CC3)c2)c(-c2ccc(Cl)cc2)n1C(C)C	8.64
CN(C)CC[C@H](CSc1ccccc1)Nc1ccc(S(=O)(=O)NC(=O)c2ccc(N3CCN(Cc4ccccc4-c4ccc(Cl)cc4)CC3)cc2)cc1[N+](=O)[O-] [ABT 737]	6.76

* * *

Here the recorded IC50 is given for each entry.
TGT: Bcl-2-like protein 1 (Homo sapiens, UniProt Q07817)
Sequence (Q07817 whole entry): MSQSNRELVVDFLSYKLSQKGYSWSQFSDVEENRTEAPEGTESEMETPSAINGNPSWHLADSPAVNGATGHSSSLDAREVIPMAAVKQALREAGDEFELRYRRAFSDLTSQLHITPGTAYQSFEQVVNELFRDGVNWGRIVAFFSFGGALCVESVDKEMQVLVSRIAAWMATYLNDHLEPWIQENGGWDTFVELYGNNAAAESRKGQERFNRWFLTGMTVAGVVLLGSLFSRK
ASSAY OVERVIEW: Binding affinity to BCL-XL (unknown origin) after 2 hrs by fluorescence polarization assay

QUERY SMILES	IC50
CN(C)CC[C@H](CSc1ccccc1)Nc1ccc(S(=O)(=O)Nc2ccc(N3CCN(c4cccc(-c5c(C(=O)O)c(Cl)n(C)c5-c5ccc(Cl)cc5)c4)CC3)cc2)cc1[N+](=O)[O-]	4.7 nM
Cc1c(C(=O)N2CC(C)(O)C2)c(-c2cccc(N3CCN(c4ccc(NS(=O)(=O)c5ccc(N[C@H](CCN(C)C)CSc6ccccc6)c([N+](=O)[O-])c5)cc4)CC3)c2)c(-c2ccc(Cl)cc2)n1C	9.4 nM
Cc1c(C(=O)NS(C)(=O)=O)c(-c2cccc(N3CCN(c4ccc(NS(=O)(=O)c5ccc(N[C@H](CCN(C)C)CSc6ccccc6)c([N+](=O)[O-])c5)cc4)CC3)c2)c(-c2ccc(Cl)cc2)n1C(C)C	6.9 nM

* * *

TGT: Apoptosis regulator Bcl-2 (Homo sapiens)
pIC50: −log10 of the molar value.
# maps each entry to its pIC50
MEASURE: pIC50

QUERY SMILES	TGT	MEASURE	RESULT NUMBER
CN(C)CC[C@H](CSc1ccccc1)Nc1ccc(S(=O)(=O)Nc2ccc(N3CCN(c4cccc(-c5cnn(C)c5-c5ccc(Cl)cc5)c4)CC3)cc2)cc1[N+](=O)[O-]	Apoptosis regulator Bcl-2 (Homo sapiens)	pIC50	6.68
CN(C)CC[C@H](CSc1ccccc1)Nc1ccc(S(=O)(=O)Nc2ccc(N3CCN(c4cccc(-c5c(C(=O)O)c(C(F)(F)F)n(C)c5-c5ccc(Cl)cc5)c4)CC3)cc2)cc1[N+](=O)[O-]	Apoptosis regulator Bcl-2 (Homo sapiens)	pIC50	8.96
Cc1oc(-c2ccc(Cl)cc2)c(-c2cccc(N3CCN(c4ccc(NS(=O)(=O)c5ccc(N[C@H](CCN(C)C)CSc6ccccc6)c([N+](=O)[O-])c5)cc4)CC3)c2)c1C(=O)O	Apoptosis regulator Bcl-2 (Homo sapiens)	pIC50	8.42
CN(C)CC[C@H](CSc1ccccc1)Nc1ccc(S(=O)(=O)Nc2ccc(N3CCN(c4cccc(-c5c(-c6ccc(Cl)cc6)nn(C)c5C(=O)O)c4)CC3)cc2)cc1[N+](=O)[O-]	Apoptosis regulator Bcl-2 (Homo sapiens)	pIC50	8.43
Cc1c(C(N)=O)c(-c2cccc(N3CCN(c4ccc(NS(=O)(=O)c5ccc(N[C@H](CCN(C)C)CSc6ccccc6)c([N+](=O)[O-])c5)cc4)CC3)c2)c(-c2ccc(Cl)cc2)n1C	Apoptosis regulator Bcl-2 (Homo sapiens)	pIC50	7.72
CCn1c(C)c(C(=O)NS(C)(=O)=O)c(-c2cccc(N3CCN(c4ccc(NS(=O)(=O)c5ccc(N[C@H](CCN(C)C)CSc6ccccc6)c([N+](=O)[O-])c5)cc4)CC3)c2)c1-c1ccc(Cl)cc1	Apoptosis regulator Bcl-2 (Homo sapiens)	pIC50	8.74
CN(C)CC[C@H](CSc1ccccc1)Nc1ccc(S(=O)(=O)Nc2ccc(N3CCN(c4cccc(-c5c(C(=O)O)nn(C)c5-c5ccc(Cl)cc5)c4)CC3)cc2)cc1[N+](=O)[O-]	Apoptosis regulator Bcl-2 (Homo sapiens)	pIC50	8.15
CN(C)CC[C@H](CSc1ccccc1)Nc1ccc(S(=O)(=O)Nc2ccc(N3CCN(c4cccc(-c5cn(C)nc5-c5ccc(Cl)cc5)c4)CC3)cc2)cc1[N+](=O)[O-]	Apoptosis regulator Bcl-2 (Homo sapiens)	pIC50	6.85
CN(C)CC[C@H](CSc1ccccc1)Nc1ccc(S(=O)(=O)Nc2ccc(N3CCN(c4cccc(-c5cncn5-c5ccc(Cl)cc5)c4)CC3)cc2)cc1[N+](=O)[O-]	Apoptosis regulator Bcl-2 (Homo sapiens)	pIC50	7.34
CCCn1c(C)c(C(=O)O)c(-c2cccc(N3CCN(c4ccc(NS(=O)(=O)c5ccc(N[C@H](CCN(C)C)CSc6ccccc6)c([N+](=O)[O-])c5)cc4)CC3)c2)c1-c1ccc(Cl)cc1	Apoptosis regulator Bcl-2 (Homo sapiens)	pIC50	8.00
Cc1c(C(=O)NS(C)(=O)=O)c(-c2cccc(N3CCN(c4ccc(NS(=O)(=O)c5ccc(N[C@H](CCN(C)C)CSc6ccccc6)c([N+](=O)[O-])c5)cc4)CC3)c2)c(-c2ccc(Cl)cc2)n1C(C)C	Apoptosis regulator Bcl-2 (Homo sapiens)	pIC50	8.74
CN(C)CC[C@H](CSc1ccccc1)Nc1ccc(S(=O)(=O)Nc2ccc(N3CCN(c4cccc(-c5ccnn5-c5ccc(Cl)cc5)c4)CC3)cc2)cc1[N+](=O)[O-]	Apoptosis regulator Bcl-2 (Homo sapiens)	pIC50	6.96
Cc1c(C(F)(F)F)c(-c2cccc(N3CCN(c4ccc(NS(=O)(=O)c5ccc(N[C@H](CCN(C)C)CSc6ccccc6)c([N+](=O)[O-])c5)cc4)CC3)c2)c(-c2ccc(Cl)cc2)n1C	Apoptosis regulator Bcl-2 (Homo sapiens)	pIC50	6.57
CCn1c(C)c(C(=O)O)c(-c2cccc(N3CCN(c4ccc(NS(=O)(=O)c5ccc(N[C@H](CCN(C)C)CSc6ccccc6)c([N+](=O)[O-])c5)cc4)CC3)c2)c1-c1ccc(Cl)cc1	Apoptosis regulator Bcl-2 (Homo sapiens)	pIC50	8.70
Cc1c(C(=O)O)c(-c2cccc(N3CCN(c4ccc(NS(=O)(=O)c5ccc(N[C@H](CCN(C)C)CSc6ccccc6)c([N+](=O)[O-])c5)cc4)CC3)c2)c(-c2ccc(Cl)cc2)n1C	Apoptosis regulator Bcl-2 (Homo sapiens)	pIC50	8.89

The measured values listed here are drawn from ChEMBL document CHEMBL2321752.
